Recorded values, source the NIST ThermoML archive (doi:10.1016/j.fluid.2018.05.033).

Please respond with reported mass density for every item in the list.
conditions: 298.15 K; 101.33 kPa; Liquid; Vibrating tube method
± gives the expanded uncertainty stated by the source.

Ask: Looking for the measured mass density of O=C1CCCO1 [γ-butyrolactone] , can you help?
Result: 1124.97 ± 0.15 kg/m3

Ask: Looking for the measured mass density of O=S1OCCO1 [1,3,2-dioxathiolane, 2-oxide] , can you help?
Result: 1432.17 ± 0.23 kg/m3

Ask: Looking for the measured mass density of CCOC(=O)OC [ethyl methyl carbonate] , can you help?
Result: 1006.88 ± 0.13 kg/m3

Ask: Looking for the measured mass density of COC(=O)OC [dimethyl carbonate] , can you help?
Result: 1060.87 ± 0.14 kg/m3

----------
conditions: Crystal; Phase equilibration
Kind request: treat 4 °C as inclusive, so Normal melting temperature at 4 °C or higher is Y, anything lower is N.

Ask: Evaluate "O=C1CCCO1" : Normal melting temperature at minimum 4 °C?
Result: N

Ask: Evaluate O=S1OCCO1 [1,3,2-dioxathiolane, 2-oxide] : Normal melting temperature at minimum 4 °C?
Result: N

Ask: Evaluate COC(=O)OC [dimethyl carbonate] : Normal melting temperature at minimum 4 °C?
Result: Y

Ask: Evaluate CCOC(=O)OC [ethyl methyl carbonate] : Normal melting temperature at minimum 4 °C?
Result: N

Ask: Evaluate O=C1OCCO1 [ethylene carbonate] : Normal melting temperature at minimum 4 °C?
Result: Y

----------
Please respond with reported refractive index for every item in the list.
assay: refractive index (Na D-line) (dimensionless); details: 298.15 K; 101.33 kPa; Liquid; Standard Abbe refractometry
Numbers after ± are expanded uncertainties.

Ask: Looking for the measured refractive index of CCOC(=O)OC [ethyl methyl carbonate] , can you help?
Result: 1.3754 ± 0.0004

Ask: Looking for the measured refractive index of COC(=O)OC [dimethyl carbonate] , can you help?
Result: 1.3662 ± 0.0004

Ask: Looking for the measured refractive index of O=S1OCCO1 [1,3,2-dioxathiolane, 2-oxide] , can you help?
Result: 1.4449 ± 0.0004

Ask: Looking for the measured refractive index of "O=C1CCCO1" , can you help?
Result: 1.4349 ± 0.0004
